The entries below are paired with their reported normalized RNA/DNA level with ligand (log10).
B1: library; a variant is named by its letters at N, in order (parent)
chain: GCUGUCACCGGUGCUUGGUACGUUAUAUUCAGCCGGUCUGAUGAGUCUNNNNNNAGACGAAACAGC

Variants of: B1
Experiment: normalized RNA/DNA level with ligand (relative to sTRSVctl = 100) (log10 (% of sTRSVctl)); HEK293T overexpressing SLC46A1; ligand concentration (+) RNA-Seq: 6 mM; higher = less ribozyme self-cleavage, higher mRNA level
Conditions: with (6R,S)-folinic acid; ligand present: yes
Could you respond with only the numeric value?

Answered cases to consult:
INSERT INTO measurements (ordered_residues, observed_value) VALUES
  ('GCUGUCACCGGUGCUUGGUACGUUAUAUUCAGCCGGUCUGAUGAGUCUAUCUCCAGACGAAACAGC [AUCUCC]', 2.03),
  ('GCUGUCACCGGUGCUUGGUACGUUAUAUUCAGCCGGUCUGAUGAGUCUCAUAACAGACGAAACAGC [CAUAAC]', 1.97),
  ('GCUGUCACCGGUGCUUGGUACGUUAUAUUCAGCCGGUCUGAUGAGUCUGUUAUGAGACGAAACAGC [GUUAUG]', 1.99);

Requested read-out: normalized RNA/DNA level with ligand (log10). Entry: GCUGUCACCGGUGCUUGGUACGUUAUAUUCAGCCGGUCUGAUGAGUCUACGAUUAGACGAAACAGC [ACGAUU]
2.03

Try GCUGUCACCGGUGCUUGGUACGUUAUAUUCAGCCGGUCUGAUGAGUCUAGUACUAGACGAAACAGC [AGUACU] next.
2.02

Also check GCUGUCACCGGUGCUUGGUACGUUAUAUUCAGCCGGUCUGAUGAGUCUGUGUACAGACGAAACAGC [GUGUAC]
2

Now consider GCUGUCACCGGUGCUUGGUACGUUAUAUUCAGCCGGUCUGAUGAGUCUCCAUUGAGACGAAACAGC [CCAUUG] .
2.02

Continue with GCUGUCACCGGUGCUUGGUACGUUAUAUUCAGCCGGUCUGAUGAGUCUUCUAUCAGACGAAACAGC [UCUAUC]
2.06

And the next one, GCUGUCACCGGUGCUUGGUACGUUAUAUUCAGCCGGUCUGAUGAGUCUUCACAGAGACGAAACAGC [UCACAG] ?
1.98

Cool, now GCUGUCACCGGUGCUUGGUACGUUAUAUUCAGCCGGUCUGAUGAGUCUUGCGAAAGACGAAACAGC [UGCGAA]
1.97

Record: GCUGUCACCGGUGCUUGGUACGUUAUAUUCAGCCGGUCUGAUGAGUCUGCCUCGAGACGAAACAGC [GCCUCG]
2.04

Record: GCUGUCACCGGUGCUUGGUACGUUAUAUUCAGCCGGUCUGAUGAGUCUAUAGUCAGACGAAACAGC [AUAGUC]
2.03

Repeat for the following variant: GCUGUCACCGGUGCUUGGUACGUUAUAUUCAGCCGGUCUGAUGAGUCUGAACUUAGACGAAACAGC [GAACUU]
1.98
